Assay overview: In vivo PK, p.o./i.p. dosing
Cond: male, Sprague-Dawley, rat, plasma, po, 3 mg/kg
Items are presented alongside their recorded bioavailability at 1 h.
Quantity kind: bioavailability at 1 h

>>> obs_value("CCCCN(Cc1ccc2[nH]ccc2c1)C(=O)c1ccc(S(=O)(=O)Nc2ccccc2)cc1")
"2%"
>>> obs_value("O=C(c1ccc(S(=O)(=O)Nc2ccccc2)cc1)N(Cc1ccc(NCCO)cn1)CC1CC1")
"15%"
>>> obs_value("COCCNc1ccc(CN(CC2CC2)C(=O)c2ccc(S(=O)(=O)Nc3ccccc3)cc2)nc1")
"13%"

###

Assay overview: In vivo PK, i.v. dosing
Cond: male, Sprague-Dawley, rat, plasma, iv, 0.2 mg/kg
Quantity kind: AUC(0-inf) at 1 h

>>> obs_value("N#CCCN(Cc1ccncc1)C(=O)c1ccc(S(=O)(=O)Nc2ccccc2)cc1 [Compound 55]")
"217 ng·h/mL"

###

Assay overview: Thermodynamic solubility
Cond: PBS, pH 7
solubility at 24 h by entry:
Quantity kind: solubility at 24 h (µM)

>>> obs_value("COCCNc1ccc(CN(CC2CC2)C(=O)c2ccc(S(=O)(=O)Nc3ccccc3)cc2)nc1")
28
>>> obs_value("CCCCN(Cc1ccc2[nH]ccc2c1)C(=O)c1ccc(S(=O)(=O)Nc2ccccc2)cc1")
3
>>> obs_value("O=C(c1ccc(S(=O)(=O)Nc2ccccc2)cc1)N(Cc1ccc(OCCO)cc1)CC1CC1")
6

###

Catalogue of compounds with associated log10 of microsomal CLint at 0.5 h, 2 µM
Assay overview: Microsomal stability
Cond: rat, microsomes, pH 7.4
Quantity kind: log10 of microsomal CLint at 0.5 h, 2 µM (log10 of the value in µL/min/mg)

>>> obs_value("Cc1cc(CN(CC2CC2)C(=O)c2ccc(S(=O)(=O)Nc3ccccc3)cc2)ncc1NCCO")
2.23
>>> obs_value("O=C(c1ccc(S(=O)(=O)Nc2ccccc2)cc1)N(Cc1ccc(NC2COC2)cn1)CC1CC1")
1.34
>>> obs_value("COCCNc1ccc(CN(CC2CC2)C(=O)c2ccc(S(=O)(=O)Nc3ccccc3)cc2)nc1")
2.51
>>> obs_value("Nc1ccc(CN(CC2CC2)C(=O)c2ccc(S(=O)(=O)Nc3ccccc3)cc2)nc1")
2.63
>>> obs_value("O=C(c1ccc(S(=O)(=O)Nc2ccccc2)cc1)N(Cc1ccc(NCCO)cn1)CC1CC1")
2.06
>>> obs_value("O=C(c1ccc(S(=O)(=O)Nc2ccccc2)cc1)N(Cc1ccc(OCCO)cc1)CC1CC1")
2.62

###

We begin with a simple list: items and their reported IC50.
System name: LIMK2 (Homo sapiens)
Sequence (P53671 whole entry): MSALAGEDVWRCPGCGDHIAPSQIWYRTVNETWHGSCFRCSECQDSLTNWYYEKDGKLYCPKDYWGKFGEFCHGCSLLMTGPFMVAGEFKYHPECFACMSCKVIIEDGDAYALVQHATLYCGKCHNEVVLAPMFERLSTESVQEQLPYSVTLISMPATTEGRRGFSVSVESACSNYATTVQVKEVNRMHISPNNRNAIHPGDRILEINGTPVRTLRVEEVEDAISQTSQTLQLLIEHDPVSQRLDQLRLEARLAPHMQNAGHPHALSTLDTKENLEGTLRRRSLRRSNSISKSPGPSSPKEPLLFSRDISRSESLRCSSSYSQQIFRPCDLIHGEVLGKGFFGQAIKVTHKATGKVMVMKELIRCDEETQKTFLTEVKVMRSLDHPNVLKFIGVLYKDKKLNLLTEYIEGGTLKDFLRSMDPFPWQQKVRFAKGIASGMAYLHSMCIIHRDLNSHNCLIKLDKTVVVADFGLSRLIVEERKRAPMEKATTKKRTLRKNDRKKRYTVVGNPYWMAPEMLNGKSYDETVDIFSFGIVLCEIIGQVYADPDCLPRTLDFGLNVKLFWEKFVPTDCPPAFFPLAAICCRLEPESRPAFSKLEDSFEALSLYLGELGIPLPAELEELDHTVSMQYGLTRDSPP
Assay overview: RapidFire mass spectrometry kinase assay (cofilin phosphorylation)
Format: biochemical
Cond: non-phosphorylated LIMK2; mean ± SEM; read-out: Enzymatic (RapidFire) pIC50 LIMK2 (converted)
Quantity kind: IC50

>>> obs_value("CCCCN(Cc1ccc(CCC(=O)O)cc1)C(=O)c1ccc(S(=O)(=O)Nc2ccccc2)cc1 [Compound 48]")
"0.0209 µM"
>>> obs_value("O=C(c1ccc(S(=O)(=O)Nc2ccccc2)cc1)N(Cc1ccc2[nH]ccc2c1)CC1CC1 [Compound 61]")
"0.011 µM"
>>> obs_value("CCCCN(CC1CCCO1)C(=O)c1ccc(S(=O)(=O)Nc2ccccc2)cc1 (stereo not drawn) [Compound 47]")
"> 10 µM"
>>> obs_value("CCCCN(Cc1cccnc1)C(=O)c1ccc(S(=O)(=O)Nc2ccccc2)cc1 [Compound 44]")
"1.51 µM"
>>> obs_value("C[C@H](c1ccccc1)N(CC1CC1)C(=O)c1ccc(S(=O)(=O)Nc2ccccc2)cc1 [Compound 65]")
"1.07 µM"
>>> obs_value("CCCCN(Cc1ccccc1)C(=O)c1cnc(S(=O)(=O)Nc2ccccc2)nc1 [Compound 24]")
"1.74 µM"
>>> obs_value("CCCCN(Cc1ccc(N2CCNCC2)cc1)C(=O)c1ccc(S(=O)(=O)Nc2ccccc2)cc1 [Compound 49]")
"2.29 µM"
>>> obs_value("CCCCN(Cc1ccccc1)C(=O)c1ccc(S(=O)(=O)NC2COC2)cc1 [Compound 38]")
"> 10 µM"
>>> obs_value("CCCCN(Cc1ccccc1)C(=O)c1coc(S(=O)(=O)Nc2ccccc2)c1 [Compound 30]")
"0.933 µM"
>>> obs_value("O=C(c1ccc(S(=O)(=O)Nc2ccccc2)cc1)N(Cc1ccc2ncoc2c1)CC1CC1 [Compound 62]")
"0.00646 µM"
>>> obs_value("C[C@@H](c1ccccc1)N(CC1CC1)C(=O)c1ccc(S(=O)(=O)Nc2ccccc2)cc1 [Compound 64]")
"0.1 µM"
>>> obs_value("CCCCN(Cc1ccccn1)C(=O)c1ccc(S(=O)(=O)Nc2ccccc2)cc1 [Compound 45]")
"0.0513 µM"
>>> obs_value("CCCCN(Cc1ccccc1)C(=O)c1ccc(S(=O)(=O)Nc2cnoc2)cc1 [Compound 36]")
"6.61 µM"
>>> obs_value("CCCCN(Cc1cccc(OC)c1)C(=O)c1ccc(S(=O)(=O)Nc2ccccc2)cc1 [Compound 41]")
"0.224 µM"
>>> obs_value("CCCCN(Cc1ccccc1)C(=O)c1ccc(S(=O)(=O)Nc2ccccc2)cc1F [Compound 21]")
"0.0302 µM"
>>> obs_value("CCCCN(Cc1ccccc1)C(=O)c1ccc(S(=O)(=O)Cc2ccccc2)cc1 [Compound 29]")
"0.468 µM"
>>> obs_value("O=C(c1ccc(S(=O)(=O)Nc2ccccc2)cc1)N(CCCn1ccnc1)Cc1ccccc1 [Compound 56]")
"0.0182 µM"
>>> obs_value("CCCCN(Cc1ccccc1)C(=O)c1ccc(S(=O)(=O)NC)cc1 [Compound 34]")
"> 10 µM"
>>> obs_value("O=C(c1ccc(S(=O)(=O)Nc2ccccc2)cc1)N(Cc1ccc(Br)cn1)CC1CC1 [Compound 63]")
"0.0257 µM"
>>> obs_value("CCCCN(Cc1ccccc1)C(=O)c1ccc(S(=O)(=O)NC2CCC2)cc1 [Compound 37]")
"0.372 µM"
>>> obs_value("CC(C)CN(Cc1ccccc1)C(=O)c1ccc(S(=O)(=O)Nc2ccccc2)cc1 [Compound 59]")
"0.0209 µM"
